Source of measurements: the Deep4Chem optical property database

experiment: solvent given as SMILES; conditions: in ClCCl
endpointLabel: emission maximum (nm)
Answers are plain numbers, in nm.

Below, 5 compounds whose answers are already recorded.
compound	endpointLabel	reportedValue
CC(C)(C)c1ccc2c3c(c4ccc(C(C)(C)C)cc4c2c1)=[N+]1C(=C(c2ccccc2)c2cc4c5ccc(C(C)(C)C)cc5c5cc(C(C)(C)C)ccc5c4n2[B-]1(F)F)C=3	emission maximum	716
O=C1OC(=O)C2=C1S[C@]13C2=C[C@H](c2ccccc21)c1ccccc13	emission maximum	514
CCC1=C(C)C2=Cc3c4ccccc4c4n3[B-](c3ccccc3)(Oc3ccccc3-4)[N+]2=C1C (configuration not stated)	emission maximum	638
CC(C)(C)c1ccc2c(c1)c1cc(C(C)(C)C)ccc1n2-c1cccc(-c2nc(-c3cccc(-n4c5ccc(C(C)(C)C)cc5c5cc(C(C)(C)C)ccc54)c3)nc(-c3cccc(P(=O)(c4ccccc4)c4ccccc4)c3)n2)c1	emission maximum	532.99
COC(=O)C(Cc1ccc2oc(-c3ccc(N(C)C)cc3)nc2c1)NC(=O)OC(C)(C)C (configuration not stated)	emission maximum	388

Please go through the list and note emission maximum for each compound.
1. COC(=O)c1nc2c(OCc3ccccc3)nc(N)nc2n1Cc1ccccc1
2. O=c1c2ccccc2nc2ccc(-c3ccc(N(c4ccccc4)c4ccccc4)cc3)cn12
3. O=S1c2ccccc2-c2cc(-c3c4ccccc4cc4ccccc34)ccc21 (configuration not stated)

A)
371
521
444.61
